# measurement target: T1, recombinant human IL-33 protein (residues 112 to 270) (ILC0701, ATGen Co. Ltd) (human, UniProt O95760 112-270)
# T1 construct: bought protein
# T1 sequence: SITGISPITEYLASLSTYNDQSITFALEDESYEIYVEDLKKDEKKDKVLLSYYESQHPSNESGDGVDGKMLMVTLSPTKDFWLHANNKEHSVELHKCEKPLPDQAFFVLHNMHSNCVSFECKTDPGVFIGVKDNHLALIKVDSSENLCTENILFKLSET
# measurement notes: KinExA in PBS, neutral-purified IgG
pKd: −log10 of the molar value.

- binder: "A23-1A05 (IgG) (antibody, V domains shown, tested as neutral-purified and as alkaline-purified antibody; also called V8; IGN8) VH: EVQLLESGGGLVQPGGSLRLSCAASGFTFSNYYMHWVRQAPGKGLEWVSSISARSRYHYYADSVKGRFTISRDNSKNTLYLQMNSLRAEDTAVYYCARLATRHNAFDIWGQGTLVTVSS VL: QSVLTQPPSASGTPGQRVTISCSGSSSNIGNNAVSWYQQLPGTAPKLLIYASNMRVIGVPDRFSGSKSGTSASLAISGLRSEDEADYYCGAWDDSQKALVFGGGTKLTVL"
  pKd: 9.64
